// data source = PubChem BioAssay (NCI)

Test system: MDA-MB-231 breast
Assay: NCI-60 one-dose screen, 48 h (100 = growth as untreated, 0 = no growth, -100 = all killed)
Settings: 10 µM unless noted
Method: Cells are grown in 96 well plates and exposed to the test compound for 48 hours. Compounds are tested at a single concentration, which is 10^-5 M for most compounds. The reported endpoint is percent growth (GI% or GIPRCNT), where numbers from 0 - 100% represent growth inhibition, and numbers from -100% - 0 represent cell death. For example, a value of 40 represents 60% growth inhibition. A value of 0 means no net growth occurred over the course of the experiment. […]
About 83,000 compounds went through this panel and 20% of them were active in at least one assay; those are over-represented in the sample as a whole.
Result type: growth (%)
// return numeric value only (unit: %, not printed)

input: Data request, read-out growth, for `C[C@@H](Oc1cc(-c2cnn(C3CC4(CCNCC4)C3)c2)cnc1N)c1c(F)ccc(Cl)c1Cl`
output: -54

input: If you can, please state the reported growth value of `COc1cc(/C=C/C(=O)C(=Cc2ccc(F)c(F)c2)C(=O)/C=C/c2ccc(O)c(OC)c2)ccc1O` .
output: 13.1

input: Would you mind telling me what growth value was observed for `COc1cc(C(=O)N(C(C)C)C2CCCCC2)cc(OC)c1OC` ?
output: 127

input: Which measured growth value corresponds to `O=C1/C(=C/c2ccc(Cl)cc2)N=C(c2ccccc2)N1CCc1cccs1` ?
output: 64.8

input: Suppose we examine the molecule `FC(F)(F)c1cc(CNc2ncc(Br)c(Cl)n2)cc(C(F)(F)F)c1` ; what growth value has been reported?
output: 121

input: Which growth reading was recorded for the molecule `COC(=O)c1ccc(C(=O)Nc2ccccc2N)cc1` ?
output: 67.3

input: Which measured growth value corresponds to Cc1c(C)n(CC(O)CNC2CCCCC2C)c2ccccc12 (stereo unspecified) ?
output: -9.38

input: Given the molecule `COc1ccc(OC)c2ncccc12` , what is its reported growth?
output: 109

input: Any idea what growth was measured for O=C1OCC2=C1C(c1ccc3c(c1)OCO3)CC(=O)N2c1cccc(Cl)c1 (stereo unspecified) ?
output: 101

input: # lookup: growth of `Cc1nc(-c2ccccc2)cc2c(O)c(C(=O)N/N=C/Cc3ccccc3)[nH]c(=O)c12`
output: 113

input: Requested field: growth. Item: COc1cccc(C2CC(=O)Nc3cc4c(cc32)CCC4)c1OC (stereo unspecified)
output: 60.3
